Please respond with reported protein stability index for every item in the list.
# Tested on: Saccharomyces cerevisiae
# protocol-text: protein stability index of tFT-peptide fusion (C-terminal peptide) (PSI (0-1 scale)); higher = more stable (slower turnover)
# experimental-context: genetic background: cdc53-1; temperature: 37 C
API note: the answer field is a bare number with no unit suffix.

State the recorded protein stability index for this entry: FCCFFPFLWRVF
0.609

Item: GVFVVVGEASVH
0.599

Item: FFSCFFFSVLYR
0.214

Item: SPLASLRFWCFC
0.768

Item: LAKPTVRKIICV
0.387

Item: ACLVAVWRWVFV
0.44

Item: LGVVLFCFRFCR
0.556

Item: PPPRLPLLSCSQ
0.679

Item: WVWFGCVLGYRV
0.561

Item: VYVLVFNMENIS
0.588

Item: FFIMFFDFWGYF
0.462

Item: LIFFFCSWVFRF
0.291

Item: VFIPFGFCLCFV
0.411

Item: FCLFFFPSLFFF
0.538

Item: SLVIVLPALIFL
0.545

Item: NAAVQSGGRVAG
0.722

Item: CVGRPIALAVRT
0.519

Item: RLARRGGGWGPG
0.733

Item: VPVWHTVKLYCF
0.439

Item: LFRFVFLLFGFW
0.428

Item: FFVYRFFSLSVC
0.209

Item: RPPHPPPATFLS
0.7

Item: SRPGRWRLYYVS
0.802

====

# Test system: Saccharomyces cerevisiae
# protocol-text: protein stability index of tFT-peptide fusion (C-terminal peptide) (PSI (0-1 scale)); higher = more stable (slower turnover)
# experimental-context: genetic background: das1 deletion; temperature: 30 C
Please respond with reported protein stability index for every item in the list.
API note: the answer field is a bare number with no unit suffix.

State the recorded protein stability index for this entry: TTVPIVSKKRQK [POP3 C-terminal 12 aa]
0.685

Item: FIVAEYIQQKKV [SRB4 C-terminal 12 aa]
0.694

Item: TYCEKYHVPSIQ [YAE1 C-terminal 12 aa]
0.692

====

# Test system: Saccharomyces cerevisiae
# protocol-text: protein stability index of tFT-peptide fusion in wild type (PSI (0-1 scale)); higher = more stable (slower turnover)
# experimental-context: genetic background: wild type
Everything with protein stability index lower than 0.2 is class 0; everything else, including exactly 0.2, is class 1.

Quick check, protein stability index >= 0.2? CTQCGYKFRTNN
class 1

Item: DLVSLPILLFFR
class 0

Item: KKHKKGQKQCIN
class 1

Item: VKGAVGGWRLVG
class 0

Item: CTSCGYSFRTNN
class 1

Item: VRGAVGGWRLVGV
class 1

Item: AITLDMCPLLLR
class 1

Item: ARWRVGLWRGSS
class 1

Item: LVVYLSCVACIR
class 0

Item: CLVSLPILDFFR
class 1

Item: LVVYLSKVACIN
class 0

Item: VRGAVGGWRLVF
class 1

Item: LKITRQKMNHQN
class 1

Item: GLYMFSVGCWFR
class 1

Item: ARWTVGLWRGAS
class 1

Item: AITLVMCPLLLR
class 1

Item: LKILRQKMNHQL
class 0

Item: LKILRQKYNHQN
class 0

Item: APTLPMCPLLLR
class 1

Item: PDKRNHSIKLLN
class 0

Item: VWGAVGGWRLVG
class 0

Item: PSLAASFWRVVGE
class 1

Item: LVVYLRCVACIN
class 0

Item: FSMRWTFRYWTN
class 0

Item: RSLRVLLPLYFF
class 1

Item: CLVSLWILLFFR
class 0

Item: LKILRQKMNHQNW
class 1

Item: FSMRWTFIYWVN
class 0

====

# System: Saccharomyces cerevisiae
# protocol-text: protein stability index of tFT-peptide fusion (C-terminal peptide) (PSI (0-1 scale)); higher = more stable (slower turnover)
# experimental-context: genetic background: das1 deletion; temperature: 30 C
result-type: protein stability index
API note: the answer field is a bare number with no unit suffix.

State the recorded protein stability index for this entry: ASLVFPKEKQNV [APC4 C-terminal 12 aa]
0.718

Item: SVYEHEHEKTFI [FUR4 C-terminal 12 aa]
0.713

Item: DLDLDLFDPDDF [MED4 C-terminal 12 aa]
0.706

Item: QNLDENVWRTPI [SSP1 C-terminal 12 aa]
0.692

Item: TPKPVDTDDEED [NEW1 C-terminal 12 aa]
0.685

Item: PFDYSDIPAADI [GPI10 C-terminal 12 aa]
0.714

Item: ITEVNVSLEEKL [FHL1 C-terminal 12 aa]
0.684

Item: YKKMKEMRKKRR [FCF2 C-terminal 12 aa]
0.703

Item: MGISSNSFQGVN [KDX1 C-terminal 12 aa]
0.704

Item: RNQNSDRLNFQP [YBR138C C-terminal 12 aa]
0.705

Item: LRLKGNAKAPGA [CLC1 C-terminal 12 aa]
0.704

Item: PQCGQVLSKGST [YGL132W C-terminal 12 aa]
0.703

Item: GSYATRAYGQKK [FDH1 C-terminal 12 aa]
0.694

Item: MEKENSGLIAFS [HOS2 C-terminal 12 aa]
0.709

Item: NEDSMEIDDDLD [HSP104 C-terminal 12 aa]
0.699

Item: DDGTKNFIFKNK [ECM23 C-terminal 12 aa]
0.707

Item: SELKGFVDEVDL [TFC1 C-terminal 12 aa]
0.718

Item: LLYPVKSESSTV [PDR16 C-terminal 12 aa]
0.68

Item: KKAPYFLPAPHT [FMO1 C-terminal 12 aa]
0.7

Item: NPKNLINDVRRT [CVM1 C-terminal 12 aa]
0.704

Item: TSSTPKSPSSGS [SMY1 C-terminal 12 aa]
0.691

Item: DNFNSAPSYFSK [MIG3 C-terminal 12 aa]
0.697

Item: TSTLAVIPYPAF [YLR466C-B C-terminal 12 aa]
0.718

Item: FVYERMKWNFGI [LEU5 C-terminal 12 aa]
0.706

Item: DFQNCFPRQRIL [DFP2 C-terminal 12 aa]
0.704

Item: SGSGNSSKSNCC [SEC4 C-terminal 12 aa]
0.691

Item: CEVYCSKNSCAS [YBR099C C-terminal 12 aa]
0.69

Item: VTPEEDEEEDEE [RPL22A C-terminal 12 aa]
0.68

Item: LAEVIGVLLKDM [AIM10 C-terminal 12 aa]
0.695

Item: TQSTVIATTSSV [NDL1 C-terminal 12 aa]
0.69

====

# Test system: Saccharomyces cerevisiae
# protocol-text: protein stability index of tFT-peptide fusion (C-terminal peptide) (PSI (0-1 scale)); higher = more stable (slower turnover)
# experimental-context: genetic background: wild type; temperature: 30 C
result-type: protein stability index
API note: the answer field is a bare number with no unit suffix.

State the recorded protein stability index for this entry: FDDSNSRTGPVQ
0.692

Item: SPSSPPSKCLSL
0.688

Item: PTRRFVFCDVDK
0.717

Item: SVHRRRSLLTPL
0.706

Item: SFACLLGRGWVD
0.719

Item: CGRFCLQGEYIV
0.705

Item: NEHTTLKITKNK
0.682

Item: LPSHPHDRPPQT
0.719

Item: CMGASRTRILTR
0.681

====

# Tested on: Saccharomyces cerevisiae
# protocol-text: protein stability index of tFT-peptide fusion in deletion strain of DAS1 (PSI (0-1 scale)); higher = more stable (slower turnover)
Please respond with reported protein stability index for every item in the list.

State the recorded protein stability index for this entry: ARYRVGLWRGAS
0.668

Item: ARWRHGLWRGAS
0.685

Item: FSMRWTFRYWWN
0.497

Item: PSLAASNWRVVG
0.692

Item: RLIQPLPVQFLNF
0.659

Item: PDKRMHLIKLLN
0.592

Item: KKHKKGTKQKIN
0.608

Item: PSLEASFWRVVG
0.673

Item: ARWRVGLWEGAS
0.658

Item: FRGAVGGWRLVG
0.685

Item: RLAQPLPVQFLN
0.566

Item: VKGAVGGWRLVG
0.691

Item: ARWRVGLSRGAS
0.695

Item: LKILRQKMNNQN
0.707

Item: LKILRQKWNHQN
0.662

Item: CTSCGYKFRTNT
0.693

Item: LVVYLSWVACIN
0.0348

Item: VRGAVGGWRTVG
0.674

Item: VRGTVGGWRLVG
0.705

====

# Test system: Saccharomyces cerevisiae
# protocol-text: protein stability index of tFT-peptide fusion (C-terminal peptide) (PSI (0-1 scale)); higher = more stable (slower turnover)
# experimental-context: genetic background: cdc34-1; temperature: 37 C
Please respond with reported protein stability index for every item in the list.
API note: the answer field is a bare number with no unit suffix.

State the recorded protein stability index for this entry: VVWLFGVSWCWL
0.429

Item: LLVVFSCFTFMF
0.259

Item: FVVIFRFSRFSA
0.419

Item: IKSIKQNKIKTI
0.619

Item: AYFPSQRVHHLM
0.637

Item: HCLLQDVPPTLH
0.641

Item: CSLRLCVRGAIV
0.667

Item: SPLASLRFWCFC
0.68

Item: LFHVWSLRFFWL
0.576

Item: PLSDPLRVILIM
0.55

Item: SYVLLQSYVSLV
0.566

Item: GVFVWVVFVCTM
0.145

Item: IWWFKELRVCRV
0.506

Item: LPSPLLFLPALF
0.708

Item: GGGGVFGVWVWM
0.533

Item: EWRPYKRNKQSS
0.63

Item: LSYRFVFRFLLF
0.543

Item: CPPPCPLYMLLC
0.506

Item: SFHTFFCPFFIL
0.53

Item: GSWGGGWRYVGW
0.761

Item: RRFKKTEIIKNN
0.625

Item: VGVYVWRGVLWA
0.277

Item: CYFLFFLSYSLE
0.237

Item: CFVFYALFGFAV
0.37

Item: FHLVIYWCVRGP
0.337

Item: EKIIVAVLFVVP
0.354

Item: VFILGFLCLLFF
0.403

Item: VFLCFSWHFFLF
0.454

Item: GESCGGSERRVG
0.69

Item: FCCFFPFLWRVF
0.593

Item: RGRLKSSYFILF
0.7

Item: FFVYRFFSLSVC
0.146

Item: VWACWCGWVLLM
0.319

Item: LLFFGFVGSCVF
0.634

Item: VYVSRTRPFSLY
0.682

Item: GLGVIFFLLGYG
0.469

Item: LCVFRFFLFFFL
0.35

Item: RLELTRIMIVAI
0.06

Item: FFFLVRLCRLCV
0.478

Item: LGVVLFCFRFCR
0.464

Item: IILGVRQIEVNS
0.488

Item: GVRCRLVIRVLG
0.47

Item: LIFLSISFISSL
0.1

Item: GLVVMFVIAGGG
0.405

Item: CCSRYLSNLCPI
0.674

Item: LLVKFTFLIIFT
0.146

Item: FFFWLLCAGWLL
0.661

Item: FALFLFFGPLIV
0.435

Item: VYIVLLLLFLRP
0.356

Item: YPRLVGGCWFRL
0.318

Item: RARFMLGVLLST
0.552

Item: FELVWLCIIGAL
0.415

Item: IFFSLFFFFLCN
0.353

Item: LPPHSASLSSSF
0.701

Item: FFIMFFDFWGYF
0.378

Item: FLLLVVYVSLYS
0.143

Item: LASFCSVCIFIS
0.224

Item: WFVCSGVYGSVM
0.676

Item: LLFPRVLVLCFS
0.034

Item: RFYLFLFFVRST
0.302

Item: GLLFWSGVVSWV
0.263

Item: VSVFWVFLLVAG
0.223

Item: HILRLVYFIVYE
0.402

Item: KAIILGNIKINF
0.729

Source: the supplement of paper PMC10724198
